Source of measurements: the supplement of paper PMC11150407

System: MOLM1 and UCSD/AML1 (averaged)
Experiment: cell viability relative to DMSO control (POC); higher = less growth inhibition
Settings: 1 µM; 72 h
Hit rate of the full screen: of about 2,100 compounds, about 180 (8.6%) showed an effect of 50% or more. What follows is part of a selection rich in strong results, with near analogues and random picks from the rest.
Consider the following compounds and their measured cell viability readings.
Respond numerically; units are % and should not be typed.

Compound	Measurement target	Result number
NCC(=O)c1ccccc1	MOLM1 and UCSD/AML1 (averaged)	130
CC(=O)CC1CCCCN1 (stereo unspecified)	MOLM1 and UCSD/AML1 (averaged)	102
CC(=O)[O][Hg][c]1ccccc1	MOLM1 and UCSD/AML1 (averaged)	1.17
CC(=O)C1CCC2C3CCC4C[C@H](O)CCC4(C)C3C[C@H](O)C12C (stereo partly drawn) [DIHYDROXY (3alpha,12alpha)PREGNAN-20-ONE]	MOLM1 and UCSD/AML1 (averaged)	105
CCCC(C)C1(CC)C(=O)NC(=S)NC1=O (stereo unspecified)	MOLM1 and UCSD/AML1 (averaged)	96.6
COc1cc2c(c(OC)c1OC)-c1ccc(OC)c(=O)cc1[C@@H](NC(C)=O)CC2	MOLM1 and UCSD/AML1 (averaged)	6.75
C[CH2][Hg][S]c1ccccc1C(=O)[O-].[Na+]	MOLM1 and UCSD/AML1 (averaged)	99.6
CC(=O)O[C@@H]1[C@H]2CC[C@H]3[C@@](C)(O)[C@@H]4C[C@H](O)C(C)(C)[C@@]4(O)[C@H](O)C[C@@]13C[C@@]2(C)O	MOLM1 and UCSD/AML1 (averaged)	100

Now consider the entry below.
MOLM1 and UCSD/AML1 (averaged) / cell viability / CC(O)(CS(=O)(=O)c1ccc(F)cc1)C(=O)Nc1ccc(C#N)c(C(F)(F)F)c1 (stereo unspecified) [Bicalutamide (Casodex)] : value?
101
